Origin of measurements: PubChem BioAssay AID1159580

Assay: chemical genetic growth profiling, strain panel (AID 1159580);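 further: tested at 20 µM; growth read once vehicle control cultures reached saturation at 30 °C; 1 = growth at the plate median or of vehicle wells; lower values mean less growth of the strain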
Conditions: S. cerevisiae deletion strains, growth OD, locus YKL068W, hits give low values
In all, about 5,500 compounds went through this assay and about 2,000 (36%) were called active. About 18% were inconclusive and are not listed. The list shows a part of the results.
Quick list: normalized growth per entry.
Just the number, please.

The recorded normalized growth for entry O=C1C[C@@H](c2ccccc2)Oc2cc(O)cc(O)c21 equals 0.949

// recorded normalized growth for COc1ccc2c(c1)C1(C)CCC(=O)CC1CC2 (stereo unspecified) : 0.978

Notebook: O=C(O)c1cc(=O)c2ccc(Cl)cc2[nH]1 , normalized growth read as 0.995

The compound identified as NC[C@@H]1O[C@H](O[C@@H]2[C@@H](CO)OC(O[C@@H]3[C@@H](O)[C@H](N)C[C@H](N)[C@H]3OC3O[C@H](CN)[C@@H](O)[C@H](O)[C@H]3N)[C@@H]2O)[C@H](N)[C@@H](O)[C@@H]1O (stereo partly specified) registered its normalized growth at 1.01

Form field normalized growth, entry Cc1c(N(C)C)c(=O)n(-c2ccccc2)n1C : 0.991

According to the records, this compound O=c1ccc2cc(O)c(O)cc2o1 displays normalized growth of 1

The compound O=C1CC(c2ccccc2)Oc2ccccc21 (stereo unspecified) showed normalized growth equal to 0.966

normalized growth in this record for N#Cc1c(Cl)c(Cl)c(Cl)c(C#N)c1Cl : 0.989

get_value(item= COc1cc(OC)c2c(c1)OC(c1ccccc1)CC2=O (stereo unspecified) , readout=normalized growth) returns 0.994

For COc1ccc(-c2coc3c(O)c(OC)ccc3c2=O)cc1 the compound record lists normalized growth as 0.94

So for COc1ccc(-c2coc3c(OC)c(OC)cc(O)c3c2=O)cc1 , the logged normalized growth turned out to be 0.993

Memo: CCCCOc1ccc(CC(=O)NO)cc1 , reported normalized growth: 0.999

Measured normalized growth, CC(C)CC1C(=O)N2CCC[C@H]2C2(O)O[C@](NC(=O)C3C=C4c5cccc6[nH]c(Br)c(c56)C[C@H]4N(C)C3)(C(C)C)C(=O)N12 (stereo partly specified) : 0.97

Quick note, normalized growth for OC(CCN1CCCCC1)(c1ccccc1)c1ccccc1 landed at 1.01

---

The entries below come with measured normalized growth values attached.
Assay: chemical genetic growth profiling, strain panel (AID 1159580);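 further: tested at 20 µM; growth read once vehicle control cultures reached saturation at 30 °C; 1 = growth at the plate median or of vehicle wells; lower values mean less growth of the strain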
Settings: S. cerevisiae deletion strains, growth OD, locus YAL013W, strain DEP1, hits give low values
Among all 5,500 compounds or so, about 2,000 (36%) were called active. Inconclusive results (about 18%) are left out. This is one part of the list.
Output spec: single numeric token, no unit.

CCC(C(N)=O)c1ccccc1 (stereo unspecified): 1.02
O=C1CC(c2ccc(O)cc2)Oc2ccccc21 (stereo unspecified): 0.894

The value of normalized growth measured for the compound CN(C)CCCCSC(=N)N turned out to be 1.04

Lab book: normalized growth of O=C(O)COc1cc(Cl)c(Cl)cc1Cl noted as 1

The compound NC(=NCCC[C@H](N)C(=O)O)NO showed normalized growth equal to 1.03

Input CC1(C)/C(=N/OC(=O)c2cccc(C(F)(F)F)c2)[C@]2(C)CCC1C2 . Output normalized growth: 1.01

Record summary for FC(F)(F)Oc1ccc(-c2noc(CSc3ccc(Br)cc3)n2)cc1 : reported normalized growth = 1.02

Please fill in: normalized growth reported for Nc1cc(-c2ccc(Cl)cc2)nc(N)n1 = 0.997

C[C@@H]1O[C@@H](O[C@H]2[C@@H](Oc3cc(O)c4c(c3)O[C@H](c3ccc(O)cc3)CC4=O)O[C@H](CO)[C@@H](O)[C@@H]2O)[C@H](O)[C@H](O)[C@H]1O has a reported normalized growth of 1

Field normalized growth (entry NC(=O)c1ncn([C@@H]2O[C@H](CO)[C@@H](O)[C@H]2O)c1O ) reads 1

// NC(=O)N1c2ccccc2CC(=O)c2ccccc21 : normalized growth value = 0.996

Measured normalized growth, CCCCCCCCCCCCC/C=C/[C@@H](O)[C@@H](N)CO : 0.877

Lab note: CCCCCCCCCCCCCCC[C@H](O)[C@H](N)CO gave normalized growth of 0.976
